// data source = ChEMBL document CHEMBL5113415

Assay: Cytotoxicity against […] infected with YFV-17D incubated for 7 days by CellTiter 96 luminescent cell viability assay
Format: toxicity, cell-based
Settings: time 7 day
Quick list: CC50 at 168 h per entry.
Express your answer in µM, writing the number without its unit.

Record excerpt, results attached:
For the compound O=C(c1ccc(C(F)(F)F)cc1O)c1[nH]c(Cl)c(Cl)c1-n1c(C(=O)c2ccc(C(F)(F)F)cc2O)cc(Cl)c1Sc1cnccn1 , give its measured CC50 at 168 h value.
1.22

For the compound CN(C)CCn1nnnc1Sc1c(Cl)cc(C(=O)c2ccc(C(F)(F)F)cc2O)n1-c1c(C(=O)c2ccc(C(F)(F)F)cc2O)[nH]c(Cl)c1Cl , give its measured CC50 at 168 h value.
4.14

For the compound O=C(c1ccc(C(F)(F)F)cc1O)c1[nH]c(Cl)c(Cl)c1-n1c(C(=O)c2ccc(C(F)(F)F)cc2O)cc(Cl)c1Sc1ncc[nH]1 , give its measured CC50 at 168 h value.
3.75

For the compound O=C(c1ccc(C(F)(F)F)cc1O)c1[nH]c(Cl)c(Cl)c1-n1c(C(=O)c2ccc(C(F)(F)F)cc2O)cc(Cl)c1Sc1cccc[n+]1[O-] , give its measured CC50 at 168 h value.
8.06

For the compound O=C(c1ccc(C(F)(F)F)cc1O)c1[nH]c(Cl)c(Cl)c1-n1c(C(=O)c2ccc(C(F)(F)F)cc2O)cc(Cl)c1Sc1nc2ccccc2s1 , give its measured CC50 at 168 h value.
1.17

---
For the compound O=C(c1ccc(C(F)(F)F)cc1O)c1[nH]c(Cl)c(Cl)c1-n1c(C(=O)c2ccc(C(F)(F)F)cc2O)cc(Cl)c1Sc1nc2cccnc2[nH]1 , give its measured CC50 at 168 h value.
19.3
